Form field: %Inh (one value per entry).
System: ZAP70
Settings: concentration: 1 μM,replicates: in singlicate; n = 1;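 further: KINOMEscan kinase panel screen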
MEASURE: %Inh (%)

[
  {
    "COMPOUND_STRUCTURE": "CN(c1ccc2c(c1)nc(NCc1ccc(F)cc1)n2C)c1ccnc(Nc2ccc(CS(C)(=O)=O)cc2)n1.Cl",
    "QUANTITATIVE_RESULT": 13
  },
  {
    "COMPOUND_STRUCTURE": "Cc1n[nH]c2cc(Nc3ccnc(Nc4cccc(CN5CCOCC5)c4)n3)ccc12",
    "QUANTITATIVE_RESULT": 17
  },
  {
    "COMPOUND_STRUCTURE": "OCCn1cc(-c2cnc3nnn(Cc4ccc5ncccc5c4)c3n2)cn1",
    "QUANTITATIVE_RESULT": 0
  },
  {
    "COMPOUND_STRUCTURE": "CN(c1ccccc1CNc1nc(Nc2ccc3c(c2)CC(=O)N3)ncc1C(F)(F)F)S(C)(=O)=O",
    "QUANTITATIVE_RESULT": 0
  }
]

====

System: CAMKK2
Conditions: concentration: 1 μM,replicates: in singlicate; n = 1

[
  {
    "COMPOUND_STRUCTURE": "CN(c1ccccc1CNc1nc(Nc2ccc3c(c2)CC(=O)N3)ncc1C(F)(F)F)S(C)(=O)=O",
    "%Inh": "64%"
  },
  {
    "COMPOUND_STRUCTURE": "C[C@@H](Oc1cc(-n2cnc3cc(-c4cnn(C)c4)ccc32)sc1C(N)=O)c1ccccc1Cl",
    "%Inh": "90.3%"
  },
  {
    "COMPOUND_STRUCTURE": "O=C(Nc1cccc(Oc2ccc3nccn3n2)c1)Nc1cccc(C(F)(F)F)c1",
    "%Inh": "0%"
  },
  {
    "COMPOUND_STRUCTURE": "COc1cccc(C2=C(Nc3cccc(Cl)c3)C(=O)NC2=O)c1",
    "%Inh": "4%"
  },
  {
    "COMPOUND_STRUCTURE": "CCn1c(-c2nonc2N)nc2cncc(Br)c21",
    "%Inh": "17%"
  },
  {
    "COMPOUND_STRUCTURE": "Cn1ccc2ncnc(Oc3ccc(NC(=O)Nc4cccc(C(F)(F)F)c4)c(F)c3)c21",
    "%Inh": "19%"
  }
]

====

Test system: CDK9
Details: concentration: 1 μM,replicates: in singlicate; n = 1

[
  {
    "COMPOUND": "O=C(Nc1cccc(Oc2ccc3nccn3n2)c1)Nc1cccc(C(F)(F)F)c1",
    "%Inh [%]": 0
  },
  {
    "COMPOUND": "COC(=O)c1cccc(NC(=O)NC2CCN(c3ccnc(Nc4cc(OC)c(OC)c(OC)c4)n3)C2)c1 (stereo not drawn) [GSK1379767]",
    "%Inh [%]": 1
  },
  {
    "COMPOUND": "OCCn1cc(-c2cnc3nnn(Cc4ccc5ncccc5c4)c3n2)cn1",
    "%Inh [%]": 8
  },
  {
    "COMPOUND": "CC(=O)Nc1nc2cnc(Nc3cc(NC(=O)c4cccc(CC(C)(C)C#N)c4)ccc3C)nc2s1",
    "%Inh [%]": 10
  },
  {
    "COMPOUND": "Cl.Nc1n[nH]c2cc(-c3ccccn3)ccc12 [GSK2189892]",
    "%Inh [%]": 7
  },
  {
    "COMPOUND": "c1ccc(Oc2ccc(Nc3ccnc4ccc(-c5ccccn5)cc34)cc2)cc1 [GW407034]",
    "%Inh [%]": 0
  },
  {
    "COMPOUND": "COC(=O)c1cccc(NC(=O)NC2CCN(c3ccnc(NCc4ccc(F)cc4)n3)CC2)c1 [GSK1379860]",
    "%Inh [%]": 0
  },
  {
    "COMPOUND": "CCn1c(-c2nonc2N)nc2cncc(CNC3CCNCC3)c21.Cl [SB-747651]",
    "%Inh [%]": 0
  },
  {
    "COMPOUND": "O=C(NCC1CC1)c1ccc(-c2cc(C(=O)NC3CC3)ccc2F)cc1 [GW810445]",
    "%Inh [%]": 0
  }
]
